# testedSystem: human Kv1.3 (human) (UniProt P22001)
# Sequence (P22001 whole entry): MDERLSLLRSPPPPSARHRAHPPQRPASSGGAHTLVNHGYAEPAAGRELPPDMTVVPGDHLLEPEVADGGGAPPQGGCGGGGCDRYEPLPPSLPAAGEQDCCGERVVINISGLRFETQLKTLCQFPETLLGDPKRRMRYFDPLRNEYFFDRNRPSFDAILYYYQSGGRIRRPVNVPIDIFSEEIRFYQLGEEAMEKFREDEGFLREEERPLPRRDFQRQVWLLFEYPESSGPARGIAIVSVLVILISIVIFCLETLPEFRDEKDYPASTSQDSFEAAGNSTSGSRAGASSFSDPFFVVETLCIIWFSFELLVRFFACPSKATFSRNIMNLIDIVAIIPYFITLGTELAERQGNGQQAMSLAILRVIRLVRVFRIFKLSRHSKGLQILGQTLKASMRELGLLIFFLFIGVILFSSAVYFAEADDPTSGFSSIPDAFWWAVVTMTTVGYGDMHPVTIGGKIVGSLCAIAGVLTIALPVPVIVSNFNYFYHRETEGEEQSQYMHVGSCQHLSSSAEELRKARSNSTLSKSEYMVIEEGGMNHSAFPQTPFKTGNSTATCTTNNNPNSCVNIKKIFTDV
# measurementDescription: cell-based or functional assay
assayMetric: Fold difference (Kv1.1 IC50 against Kv1.3 IC50) (fold)
# output: bare number, implied unit fold

Query: Specify reported Fold difference (Kv1.1 IC50 against Kv1.3 IC50) for the binder shown: KB_A12_ADWX1 short (antibody, V domains shown) VH: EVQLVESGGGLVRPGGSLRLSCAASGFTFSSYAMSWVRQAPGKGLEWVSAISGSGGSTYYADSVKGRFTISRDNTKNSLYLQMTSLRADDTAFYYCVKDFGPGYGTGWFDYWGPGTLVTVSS VL: NWYQQLPGKAPKLLIYAAGRVKCKHSRQCLKPCKDAGMRFGKCTNGKCHCTPKANSGVSDRFSAAKSGTSASLAINGLRSEDEADYYCAAWDDSLNGYVFGTGTKLTVLG
Result: 6

Query: Specify reported Fold difference (Kv1.1 IC50 against Kv1.3 IC50) for the binder shown: KB_A12_HsTx1 (antibody, V domains shown) VH: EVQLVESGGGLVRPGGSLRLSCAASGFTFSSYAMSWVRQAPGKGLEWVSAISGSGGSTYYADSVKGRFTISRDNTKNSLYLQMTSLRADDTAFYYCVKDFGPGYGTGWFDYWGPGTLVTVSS VL: NWYQQLPGKAPKLLIYAAGRASCRTPKDCADPCRKETGCPYGKCMNRKCKCNRCANSGVSDRFSAAKSGTSASLAINGLRSEDEADYYCAAWDDSLNGYVFGTGTKLTVLG
Result: 43

Query: Specify reported Fold difference (Kv1.1 IC50 against Kv1.3 IC50) for the binder shown: KB_A12_ShK (antibody, V domains shown) VH: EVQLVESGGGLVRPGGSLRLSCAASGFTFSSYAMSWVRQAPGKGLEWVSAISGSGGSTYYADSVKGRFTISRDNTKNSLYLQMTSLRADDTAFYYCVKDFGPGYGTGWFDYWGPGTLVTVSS VL: NWYQQLPGKAPKLLIYAAGRRSCIDTIPKSRCTAFQCKHSMKYRLSFCRKTCGTCANSGVSDRFSAAKSGTSASLAINGLRSEDEADYYCAAWDDSLNGYVFGTGTKLTVLG
Result: 3

Query: Specify reported Fold difference (Kv1.1 IC50 against Kv1.3 IC50) for the binder shown: KB_A12_Odk2 (antibody, V domains shown) VH: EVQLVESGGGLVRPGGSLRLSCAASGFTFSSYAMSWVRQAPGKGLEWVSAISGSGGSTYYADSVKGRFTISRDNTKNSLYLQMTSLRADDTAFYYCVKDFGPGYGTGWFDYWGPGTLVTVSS VL: QSVLTQPPSVSEAPRQRVTITCSGSSSNIGNNAVNWYQQLPGKAPKLLIYAAGRGVPTDVKCRGSPQCIQPCKDAGMRFGKCMNGKCHCTPKANSGVSDRFSAAKSGTSASLAINGLRSEDEADYYCAAWDDSLNGYVFGTGTKLTVLG
Result: 6

Query: Specify reported Fold difference (Kv1.1 IC50 against Kv1.3 IC50) for the binder shown: KB_A12_Vm24 (antibody, V domains shown) VH: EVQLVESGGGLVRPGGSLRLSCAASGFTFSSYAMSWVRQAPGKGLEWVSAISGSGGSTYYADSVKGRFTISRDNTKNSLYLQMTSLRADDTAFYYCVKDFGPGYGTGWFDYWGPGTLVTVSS VL: QSVLTQPPSVSEAPRQRVTITCSGSSSNIGNNAVNWYQQLPGKAPKLLIYAAGRAAAISCVGSPECPPKCRAQGCKNGKCMNRKCKCYYCANSGVSDRFSAAKSGTSASLAINGLRSEDEADYYCAAWDDSLNGYVFGTGTKLTVLG
Result: 102
